Ref: patent US5693668A

protocolNotes: Pharmacokinetics and bioavailability of [14C]-MDL 73,745 in Beagle dogs
Type: in vivo, Beagle dog
conditions: dog, in vivo, iv, 2 mg/kg, iv 2 mg/kg, mean ± SD of 3 dogs; read-out: Cltot
endpoint: clearance (mL/min/kg)
Give the quantity in mL/min/kg, number only.

[Q] Value lookup for clearance; key = C[Si](C)(C)c1cccc(C(=O)C(F)(F)F)c1
[A] 80.5

----------
protocolNotes: Pharmacokinetics and bioavailability of [14C]-MDL 73,745 in Beagle dogs
Assay type: in vivo, Beagle dog
conditions: dog, in vivo, po, 10 mg/kg, oral 10 mg/kg, dog No. 18
endpoint: Tmax (min)
Give the quantity in min, number only.

[Q] Value lookup for Tmax; key = C[Si](C)(C)c1cccc(C(=O)C(F)(F)F)c1
[A] 10.2

----------
protocolNotes: Pharmacokinetics and bioavailability of [14C]-MDL 73,745 in Beagle dogs
Assay type: in vivo, Beagle dog
conditions: dog, in vivo, iv, 2 mg/kg, iv 2 mg/kg, dog No. 17; read-out: Cltot
endpoint: clearance (mL/min/kg)
Give the quantity in mL/min/kg, number only.

[Q] Value lookup for clearance; key = C[Si](C)(C)c1cccc(C(=O)C(F)(F)F)c1
[A] 78.3

----------
protocolNotes: Pharmacokinetics and bioavailability of [14C]-MDL 73,745 in Beagle dogs
Format: in vivo, Beagle dog
conditions: dog, in vivo, sc, 10 mg/kg, subcutaneous 10 mg/kg, normalized to 2 mg/kg iv, dog No. 19; read-out: F
endpoint: bioavailability (%)
Give the quantity in %, number only.

[Q] Value lookup for bioavailability; key = C[Si](C)(C)c1cccc(C(=O)C(F)(F)F)c1
[A] 36

----------
protocolNotes: Pharmacokinetics and bioavailability of [14C]-MDL 73,745 in Beagle dogs
Assay type: in vivo, Beagle dog
conditions: dog, in vivo, sc, 10 mg/kg, subcutaneous 10 mg/kg, dog No. 17
Description: Three male Beagle dogs were studied. Animals were fasted 12 h before drug administration but had free access to drinking water. The following single doses of [^14 C]-MDL 73,745 were administered: intravenous (iv): 1 and 2 mg/kg; oral (po): 10 mg/kg; subcutaneous (sc): 10 mg/kg. There was a two week wash-out period between each administration. Drug was administered as a suspension in 0.5% methyl cellulose. […]
endpoint: Tmax (h)
Give the quantity in h, number only.

[Q] Value lookup for Tmax; key = C[Si](C)(C)c1cccc(C(=O)C(F)(F)F)c1
[A] 6

----------
protocolNotes: Pharmacokinetics and bioavailability of [14C]-MDL 73,745 in Beagle dogs
Type: in vivo, Beagle dog
conditions: dog, in vivo, po, 10 mg/kg, oral 10 mg/kg, mean ± SD of 3 dogs
Protocol: Three male Beagle dogs were studied. Animals were fasted 12 h before drug administration but had free access to drinking water. The following single doses of [^14 C]-MDL 73,745 were administered: intravenous (iv): 1 and 2 mg/kg; oral (po): 10 mg/kg; subcutaneous (sc): 10 mg/kg. There was a two week wash-out period between each administration. Drug was administered as a suspension in 0.5% methyl cellulose. […]
endpoint: Tmax
Give the figure together with its unit, number first.

[Q] Value lookup for Tmax; key = C[Si](C)(C)c1cccc(C(=O)C(F)(F)F)c1
[A] 43.2 min

----------
protocolNotes: Pharmacokinetics and bioavailability of [14C]-MDL 73,745 in Beagle dogs
Format: in vivo, Beagle dog
conditions: dog, in vivo, sc, 10 mg/kg, subcutaneous 10 mg/kg, dog No. 19
Description: Three male Beagle dogs were studied. Animals were fasted 12 h before drug administration but had free access to drinking water. The following single doses of [^14 C]-MDL 73,745 were administered: intravenous (iv): 1 and 2 mg/kg; oral (po): 10 mg/kg; subcutaneous (sc): 10 mg/kg. There was a two week wash-out period between each administration. Drug was administered as a suspension in 0.5% methyl cellulose. […]
endpoint: Cmax (µg/mL)
Give the quantity in µg/mL, number only.

[Q] Value lookup for Cmax; key = C[Si](C)(C)c1cccc(C(=O)C(F)(F)F)c1
[A] 0.0447
